# Tested on: FR4 (cancer type: MM)
# assay_method_text: normalized area under the dose-response curve (viability relative to DMSO control) (fraction); higher = less sensitive (more viable cells)
# test_parameters: exposure time not given
reported_endpoint: normalized area under the dose-response curve
No unit in the answer, only the number.

Record `CC(C)C[C@H](NC(=O)[C@H](CCc1ccccc1)NC(=O)CN1CCOCC1)C(=O)N[C@@H](Cc1ccccc1)C(=O)N[C@@H](CC(C)C)C(=O)[C@@]1(C)CO1` , field normalized area under the dose-response curve: 0.638

Record `CC(=O)c1c(C)c2cnc(Nc3ccc(N4CCNCC4)cn3)nc2n(C2CCCC2)c1=O` , field normalized area under the dose-response curve: 0.716

Record `Cc1[nH]c2ccccc2c1CCNCc1ccc(/C=C/C(=O)NO)cc1` , field normalized area under the dose-response curve: 0.594

Record `COC(=O)c1ccc2c(c1)NC(=O)/C2=C(\Nc1ccc(N(C)C(=O)CN2CCN(C)CC2)cc1)c1ccccc1` , field normalized area under the dose-response curve: 0.911

Record `C=CC(=O)N1CCC[C@@H](n2nc(-c3ccc(Oc4ccccc4)cc3)c3c(N)ncnc32)C1` , field normalized area under the dose-response curve: 0.793

Record `COc1cc(C(=O)O)ccc1NC(=O)[C@@H]1N[C@@H](CC(C)(C)C)[C@](C#N)(c2ccc(Cl)cc2F)[C@H]1c1cccc(Cl)c1F` , field normalized area under the dose-response curve: 0.837

Record `CC1(C)CCC(CN2CCN(c3ccc(C(=O)NS(=O)(=O)c4ccc(NCC5CCOCC5)c([N+](=O)[O-])c4)c(Oc4cnc5[nH]ccc5c4)c3)CC2)=C(c2ccc(Cl)cc2)C1` , field normalized area under the dose-response curve: 0.617

Record Nc1nc(F)nc2c1ncn2[C@@H]1O[C@H](COP(=O)(O)O)[C@@H](O)[C@@H]1O [Fludarabine phosphate] , field normalized area under the dose-response curve: 0.858
